Test system: U251 CNS
Classes used: TRUE (active), FALSE (inactive)

>>> qualitative_label("COc1nc2c(cc1S(=O)(=O)c1ccccc1)CCc1c-2cnn1-c1ccccc1Cl")
"FALSE"
>>> qualitative_label("CN1CCN(Cc2ccc(NC(=O)c3cncc(C#Cc4cnc(N)c5ccccc45)c3)cc2C(F)(F)F)CC1")
"TRUE"
>>> qualitative_label("CC1=C(CCCOC(=O)NCCCl)C2=C(C)C3(CC3)[C@@](C)(O)C(=O)C2=C1")
"FALSE"
>>> qualitative_label("CC1=C2[C@@H](CC1)[C@]1(C)O[C@@](C(C)C)(C[C@H]1OC(=O)[C@H](C)O)[C@H]2OC(=O)/C=C/c1ccccc1")
"FALSE"
>>> qualitative_label("CCOC(=O)c1cc(-c2ccc([N+](=O)[O-])cc2)n(-c2ccc(C(=O)O)c(O)c2)c1C")
"FALSE"
>>> qualitative_label("Clc1ccc(Cc2nc3cc4ccccc4cc3[nH]2)cc1")
"FALSE"
>>> qualitative_label("COc1ccc(-n2cc(-c3ccc(OC)c(OC)c3)[nH]c2=S)cc1Cl")
"FALSE"
>>> qualitative_label("N#Cc1c(O)c2c(c(O)c1C#N)C(=O)c1ccccc1C2=O")
"FALSE"
>>> qualitative_label("O=C(/C=C(\\[O-])c1ccccc1)CCCCCCC(=O)/C=C(\\[O-])c1ccccc1.O=C(/C=C(\\[O-])c1ccccc1)CCCCCCC(=O)/C=C(\\[O-])c1ccccc1.O=C(/C=C(\\[O-])c1ccccc1)CCCCCCC(=O)/C=C(\\[O-])c1ccccc1.[La+3].[La+3]")
"FALSE"
>>> qualitative_label("CN(C)CCNc1nc2ccccc2c2[nH]c3ccccc3c12")
"TRUE"
>>> qualitative_label("Cn1cc(C2=C(c3ccc(OC[C@@H](O)CO)cc3)C(=O)NC2=O)c2ccccc21")
"FALSE"
>>> qualitative_label("CC[n+]1ccc2c(c1)C(=O)c1nccc3c1c-2nc1ccccc13")
"TRUE"
>>> qualitative_label("NNC(=O)c1cnn(-c2ccnc3c(C(F)(F)F)cccc23)c1N")
"FALSE"
>>> qualitative_label("COc1ccc(CN2CCCC(C(=O)c3ccc(C(F)(F)F)cc3)C2)c(O)c1 (centres undefined)")
"FALSE"
